B1: TOR1AIP2 (parent)
chain: HHVADAYTSSQKVSPIQIDGAGRT

Variants of: B1
assay_details: protein stability index of a GFP-peptide fusion (GPS, HEK-293T) (PSI 1-6); higher = more stable;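 also: lentivirally expressed fusions sorted by FACS into six bins by GFP to DsRed ratio, PSI derived from sequencing read proportions per bin multiplied by bin number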
experimental_conditions: c terminus: a fixed tail appended
Binary classification by protein stability index, with 3 as an inclusive lower bound for 1.0; all other cases are 0.0.

INSERT INTO assay_data (sequence_input, assigned_category) VALUES
  ('HHVADAYHSSQKVSPIQIDGAGRT [T8H]', 1.0);

Entry HHVADAYTSSQKVSPPQIDGAGRT [I16P] : is its protein stability index no less than 3? 1.0

Next: HHVADAQTSSQKVSPIQIDGAGRT [Y7Q] 1.0

Next: HHVADAYTSSQKVSPIQIDGAGRH [T24H] 1.0

Next: HHVADAYDSSQKVSPIQIDGAGRT [T8D] 1.0
